Origin of measurements: patent US8334315B2

# Target Or Test System: hVR1 (Homo sapiens)
# Construct: expressed in transfected cells; host or cells: CHO K1 cells (ECACC), stably transfected
# Sequence (Q8NER1 whole entry): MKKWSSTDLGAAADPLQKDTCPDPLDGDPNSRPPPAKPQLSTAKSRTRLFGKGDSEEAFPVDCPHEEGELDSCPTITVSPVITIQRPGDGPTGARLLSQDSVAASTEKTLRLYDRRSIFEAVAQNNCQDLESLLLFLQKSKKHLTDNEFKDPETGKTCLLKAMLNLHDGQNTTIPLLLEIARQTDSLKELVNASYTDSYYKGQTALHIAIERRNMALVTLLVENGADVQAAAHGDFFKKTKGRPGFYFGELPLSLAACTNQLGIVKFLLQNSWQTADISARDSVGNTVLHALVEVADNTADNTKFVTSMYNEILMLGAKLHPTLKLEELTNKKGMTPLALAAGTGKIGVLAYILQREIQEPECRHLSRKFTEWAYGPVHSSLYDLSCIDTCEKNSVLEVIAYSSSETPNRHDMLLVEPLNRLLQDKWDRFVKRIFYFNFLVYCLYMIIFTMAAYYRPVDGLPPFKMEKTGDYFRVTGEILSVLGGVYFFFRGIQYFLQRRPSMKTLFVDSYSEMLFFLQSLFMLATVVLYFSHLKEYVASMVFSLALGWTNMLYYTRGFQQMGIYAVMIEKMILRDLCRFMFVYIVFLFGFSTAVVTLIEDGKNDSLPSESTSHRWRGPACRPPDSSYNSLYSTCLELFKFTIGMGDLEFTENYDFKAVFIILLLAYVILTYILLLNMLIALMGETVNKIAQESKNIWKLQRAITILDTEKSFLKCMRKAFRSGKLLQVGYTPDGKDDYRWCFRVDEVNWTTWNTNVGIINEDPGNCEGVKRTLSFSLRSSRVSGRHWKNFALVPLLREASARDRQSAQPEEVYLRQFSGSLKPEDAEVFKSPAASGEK
# Assay Procedure: Functional test on VR1, FLIPR Ca2+ influx in transfected CHO K1 cells, capsaicin
# Assay type: cell-based, human being
# Set-up: key: agonist / partial agonist / no effect: AG=agonist; pAG=partial agonist; NE=no effect
Reported Metric: Ki (human being) [nM] Cap: agonist / partial agonist / no effect

{"columns": ["Compound", "Value"],
 "data": [
  ["CC(C(=O)NCc1cc(C(F)(F)F)nn1-c1cccc(Cl)c1)c1ccc2nc(N)sc2c1 (stereo not shown)", "pAG"],
  ["CC(C(=O)NCc1cc(C(F)(F)F)nn1-c1cccc(Cl)c1)c1cccc2c1ccc[n+]2[O-] (stereo not shown)", "AG"],
  ["CC(C)(C)c1cc(CNC(=O)Nc2ccc3c(c2)OC(F)(F)O3)n(-c2cccc(Cl)c2)n1", "AG"],
  ["CC(C)(C)c1cc(CNC(=O)Nc2cccc3ncccc23)n(-c2cccc(Cl)c2)n1", "AG"]
]}

---

# Target Or Test System: hVR1 (Homo sapiens)
# Construct: expressed in transfected cells; host or cells: CHO K1 cells (ECACC), stably transfected
# Assay Procedure: Functional test on VR1, FLIPR Ca2+ influx in transfected CHO K1 cells, capsaicin
# Type: cell-based, human being
# Assay Context: capsaicin (Cap); includes values given in brackets after pAG; read-out: Ki (human being) [nM] Cap
# From the text: In the process, the Ca^2+ influx is quantified in the FLIPR assay with the aid of a Ca^2+-sensitive dye (type Fluo-4, Molecular Probes Europe BV, Leiden, the Netherlands) in a fluorescent imaging plate reader (FLIPR, Molecular Devices, Sunnyvale, USA), as described hereinafter. II. Functional Tests Carried Out on the Vanilloid Receptor (VR1) The agonistic or antagonistic effect of the substances to be tested on the vanilloid receptor 1 (VR1) can also be determined using the following assay. […]
Below: a set of entries, each annotated with reported Ki.

{"columns": ["Compound", "Ki [nM]"],
 "data": [
  ["CC(C)(C)c1cc(CNC(=O)Nc2ccc3c(c2)CCC3)n(-c2cccc(Cl)c2)n1", 10.8],
  ["COc1ccc(-n2nc(C(F)(F)F)cc2CNC(=O)Nc2ccc3c(c2)CCC3)cc1", 38.4],
  ["CC(C(=O)NCc1cc(C(F)(F)F)nn1-c1cccc(Cl)c1)c1ccc2cc(O)ccc2c1 (stereo not shown)", 1.3],
  ["O=C(NCc1cc(C(F)(F)F)nn1-c1ccc(Cl)cc1)Nc1ccc2c(c1)CCC2", 75.8],
  ["CC(C(=O)NCc1cc(C(F)(F)F)nn1-c1cccc(Cl)c1)c1cccc2cnc(Cl)cc12 (stereo not shown)", 0.07],
  ["Cc1cc2c(NC(=O)NCc3cc(C(F)(F)F)nn3-c3cccc(Cl)c3)cccc2[nH]1", 10.8],
  ["CC(C(=O)NCc1cc(C(F)(F)F)nn1-c1cccc(Cl)c1)c1cccc2c1ccn2C (stereo not shown)", 21.5],
  ["Cc1nc2ccc(C(C)C(=O)NCc3cc(C(F)(F)F)nn3-c3cccc(Cl)c3)cc2s1 (stereo not shown)", 15],
  ["CC(C(=O)NCc1cc(C(F)(F)F)nn1-c1cccc(Cl)c1)c1cccc2c1CCC2O (stereo not shown)", 2.4],
  ["CC(C)(C)c1cc(CNC(=O)Nc2cncc3ccccc23)n(-c2cccc(Cl)c2)n1", 7.3],
  ["Cc1c(C(F)(F)F)nn(-c2cccc(Cl)c2)c1CNC(=O)C(C)c1ccc2c(c1)OCCO2 (stereo not shown)", 17.1],
  ["CC(C)(C)c1cc(CNC(=O)Nc2cccc3cccnc23)n(-c2cccc(Cl)c2)n1", 22.4],
  ["CC(C(=O)NCc1cc(C(F)(F)F)nn1-c1cccc(Cl)c1)c1ccc(F)c2[nH]ncc12 (stereo not shown)", 6.8],
  ["CC(C(=O)NCc1cc(C(F)(F)F)nn1-c1cccc(Cl)c1)c1ccc2[nH]ccc2c1 (stereo not shown)", 2.4],
  ["CC(C(=O)NCc1cc(C(C)(C)C)nn1-c1cccc(Cl)c1)c1ccc2ocnc2c1 (stereo not shown)", 4.2],
  ["CC(C(=O)NCc1cc(C(F)(F)F)nn1-c1cccc(Cl)c1)c1cccc2[nH]ncc12 (stereo not shown)", 1.1]
]}
